# TGI annotations
- System: OVCAR-8 ovarian
- assay_method_text: NCI tumour cell line growth inhibition, 48 h

molecule	TGI
CSc1ncnc2c1ncn2C1CC(Oc2ccc(C)cc2)C(COc2ccc(C)cc2)O1 (centres undefined)	> 100 µM
Cc1ccc(SCC(CF)OC(C)n2cnc3c(=O)[nH]c(N)nc32)cc1 (centres undefined)	> 100 µM
CCOC(=O)C1=C(C)N(NC(=O)Nc2ccccc2)C(=O)C1=P(c1ccccc1)(c1ccccc1)c1ccccc1	> 100 µM
NC(N)=N/N=C(\c1nc2ccc([N+](=O)[O-])cc2[nH]c1=O)C(O)c1ccc([N+](=O)[O-])cc1 (centres undefined)	> 100 µM
O=C1C=C(C2=CC(=O)C(=O)c3ccccc32)c2ccccc2C1=O	75.7 µM
COc1ccc(Nc2c3ccccc3nc3occc23)cc1	> 100 µM
COC1C=CC(O)C(CO)O1 (centres undefined)	> 100 µM
Cc1cccc(N2CCN(C(=S)c3ccc4c(c3)OCO4)CC2)c1	> 100 µM
COC[C@@H](C[C@H]1O[C@@](O)([C@H](O)[C@@H]2C[C@H](OC)[C@@H](O)CC/C=C(C)/C=C/[C@@H](O[C@@H]3O[C@@H](C)[C@H](OC)[C@@H](O)[C@@H]3O)[C@H](C)/C=C(C)/C=C(C)/C=C(\C)C(=O)O2)[C@H](C)[C@@H](O)[C@H]1C)O[C@H]1C[C@](C)(O)[C@@H](O[C@H]2C[C@@H](OC)[C@H](O)[C@@H](C)O2)C(C)O1 (some centres undefined)	> 100 µM

Value source: PubChem BioAssay (NCI)
